Measured values drawn from patent US20250027068 for this set.

target entity: pooled human IgG
test readout: Enzyme Activity Endpoint Assay: IgG (ng/µL)
Give bare numbers, in ng/µL.

For each of the proteins below, state Enzyme Activity Endpoint Assay: IgG.
1. PRT-9 (protein) MANQEIRYSEETPYHVTSVWTKGVTPPANFTQGEDVFHAPYVANQGWYDITKTFNGKDDLLCGAATAGNMLHWWFDQNKEQIERYLKEHPEKQKINFNGEQMFDVKEAIDTKNSQLDSKLFEYFKEKAFPYLSTKHLGVFPDHVIDMFINGYRLSLTNHGPTPVKEGSKDPRGGIFDAVFTRGDQSKLLTSRHDFKEKTLKEISDLIKKELTEGKALALSHTYANVRINHVINLWGADFDSNGNLKAIYVTDSDSNASIGMKKYFVGVNSAGKVAISAKEIKEDNIGAQVLGLFTLSSGQDIWNQTN
2. PRT-2 (protein) MANQEIRYSEVTPYHVTSVWTKGVTPPAKFTQGEDVFHAPYVANQGWYDITKTFNGKDDLLCGAATAGNMLHWWFDQNKEKIEAYLKKHPDKQKIMFGDQELLDVRKVINTKGDQTNSELFNYFRDKAFPGLSARRIGVMPDLVLDMFINGYYLNVYKTQTTDVNRTYQEKDRRGGIFDAVFTRGDQSKLLTSRHDFKEKNLKEISDLIKKELTEGKALGLSHTYANVRINHVINLWGADFDSNGNLKAIYVTDSDSNASIGMKKYFVGVNSAGKVAISAKEIKEDNIGAQVLGLFTLSTGQDSWNQTN

Solution:
[21, 21]
